- Tested on: Mycobacterium tuberculosis Erdman (autoluminescent)
- PROCEDURE_SUMMARY: Einf, fitted maximum growth inhibition of combination (fraction); higher = stronger maximal inhibition
- CONDITION_CONTEXT: in vitro model: cholesterol-high 0.2 mM; time point: constant (~7 days, model-specific)
Reported Einf by item:
// no unit, no text: just the number

// recorded Einf for COc1nc2ccc(Br)cc2cc1[C@@H](c1ccccc1)[C@@](O)(CCN(C)C)c1cccc2ccccc12 [bedaquiline] + CO[C@H]1/C=C/O[C@@]2(C)Oc3c(C)c(O)c4c(O)c(c(/C=N/N5CCN(C)CC5)c(O)c4c3C2=O)NC(=O)/C(C)=C\C=C\[C@H](C)[C@H](O)[C@@H](C)[C@@H](O)[C@@H](C)[C@H](OC(C)=O)[C@@H]1C [rifampicin] : 0.982

====

- Test system: Mycobacterium tuberculosis Erdman (autoluminescent)
- PROCEDURE_SUMMARY: Einf, fitted maximum growth inhibition of three-drug combination (fraction); higher = stronger maximal inhibition
- CONDITION_CONTEXT: in vitro model: cholesterol 0.05 mM; time point: constant (~7 days, model-specific)
READOUT_NAME: Einf
Please reply with the value in numeric form only.

COMPOUND	Einf
NNC(=O)c1ccncc1 [isoniazid] + CC(=O)NC[C@H]1CN(c2ccc(N3CCOCC3)c(F)c2)C(=O)O1 [linezolid] + O=[N+]([O-])c1cn2c(n1)OC[C@@H](OCc1ccc(OC(F)(F)F)cc1)C2 [pretomanid]	0.69
CC(=O)NC[C@H]1CN(c2ccc(N3CCOCC3)c(F)c2)C(=O)O1 [linezolid] + COc1c(N2C[C@@H]3CCCN[C@@H]3C2)c(F)cc2c(=O)c(C(=O)O)cn(C3CC3)c12 [moxifloxacin] + NC(=O)c1cnccn1 [pyrazinamide]	0.704
COc1nc2ccc(Br)cc2cc1[C@@H](c1ccccc1)[C@@](O)(CCN(C)C)c1cccc2ccccc12 [bedaquiline] + NNC(=O)c1ccncc1 [isoniazid] + CO[C@H]1/C=C/O[C@@]2(C)Oc3c(C)c(O)c4c(O)c(c(/C=N/N5CCN(C6CCCC6)CC5)c(O)c4c3C2=O)NC(=O)/C(C)=C\C=C\[C@H](C)[C@H](O)[C@@H](C)[C@@H](O)[C@@H](C)[C@H](OC(C)=O)[C@@H]1C [rifapentine]	0.689

We now examine a further compound.
In plain terms, COc1nc2ccc(Br)cc2cc1[C@@H](c1ccccc1)[C@@](O)(CCN(C)C)c1cccc2ccccc12 [bedaquiline] + O=[N+]([O-])c1cn2c(n1)OC[C@@H](OCc1ccc(OC(F)(F)F)cc1)C2 [pretomanid] + NC(=O)c1cnccn1 [pyrazinamide] has a documented Einf of 0.748

====

- Test system: Mycobacterium tuberculosis Erdman (autoluminescent)
- PROCEDURE_SUMMARY: Einf, fitted maximum growth inhibition of three-drug combination (fraction); higher = stronger maximal inhibition
- CONDITION_CONTEXT: in vitro model: acidic pH 5.7; time point: constant (~7 days, model-specific)
READOUT_NAME: Einf
Hey, just send me the number, nothing else.

These solved cases illustrate the format of a correct answer.
MOLECULE	MEASUREMENT_TARGET	MEAS_VALUE
CC(C)/N=c1\cc2n(-c3ccc(Cl)cc3)c3ccccc3nc-2cc1Nc1ccc(Cl)cc1 [clofazimine] + COc1c(N2C[C@@H]3CCCN[C@@H]3C2)c(F)cc2c(=O)c(C(=O)O)cn(C3CC3)c12 [moxifloxacin] + CO[C@H]1/C=C/O[C@@]2(C)Oc3c(C)c(O)c4c(O)c(c(/C=N/N5CCN(C)CC5)c(O)c4c3C2=O)NC(=O)/C(C)=C\C=C\[C@H](C)[C@H](O)[C@@H](C)[C@@H](O)[C@@H](C)[C@H](OC(C)=O)[C@@H]1C [rifampicin]	Mycobacterium tuberculosis Erdman (autoluminescent)	0.794
COc1nc2ccc(Br)cc2cc1[C@@H](c1ccccc1)[C@@](O)(CCN(C)C)c1cccc2ccccc12 [bedaquiline] + COc1c(N2C[C@@H]3CCCN[C@@H]3C2)c(F)cc2c(=O)c(C(=O)O)cn(C3CC3)c12 [moxifloxacin] + CO[C@H]1/C=C/O[C@@]2(C)Oc3c(C)c(O)c4c(O)c(c(/C=N/N5CCN(C6CCCC6)CC5)c(O)c4c3C2=O)NC(=O)/C(C)=C\C=C\[C@H](C)[C@H](O)[C@@H](C)[C@@H](O)[C@@H](C)[C@H](OC(C)=O)[C@@H]1C [rifapentine]	Mycobacterium tuberculosis Erdman (autoluminescent)	0.851

# molecule CC[C@@H](CO)NCCN[C@@H](CC)CO [ethambutol] + COc1c(N2C[C@@H]3CCCN[C@@H]3C2)c(F)cc2c(=O)c(C(=O)O)cn(C3CC3)c12 [moxifloxacin] + NC(=O)c1cnccn1 [pyrazinamide] ; its Einf = 0.781

====

- System: Mycobacterium tuberculosis Erdman (autoluminescent)
- PROCEDURE_SUMMARY: GRinf, maximum normalised growth rate inhibition (three-drug combination) (unitless (-1 to 1)); higher = less effect (negative = killing)
- CONDITION_CONTEXT: in vitro model: cholesterol 0.05 mM; time point: constant (~7 days, model-specific)
Class rule met: GRinf at least -0.2. Class rule not met: GRinf below -0.2.

Illustrative cases are given below, each with its answer.
COMPOUND	MEASUREMENT_TARGET	CLASS_LABEL
COc1nc2ccc(Br)cc2cc1[C@@H](c1ccccc1)[C@@](O)(CCN(C)C)c1cccc2ccccc12 [bedaquiline] + CC[C@@H](CO)NCCN[C@@H](CC)CO [ethambutol] + O=[N+]([O-])c1cn2c(n1)OC[C@@H](OCc1ccc(OC(F)(F)F)cc1)C2 [pretomanid]	Mycobacterium tuberculosis Erdman (autoluminescent)	rule not met
COc1nc2ccc(Br)cc2cc1[C@@H](c1ccccc1)[C@@](O)(CCN(C)C)c1cccc2ccccc12 [bedaquiline] + NNC(=O)c1ccncc1 [isoniazid] + O=[N+]([O-])c1cn2c(n1)OC[C@@H](OCc1ccc(OC(F)(F)F)cc1)C2 [pretomanid]	Mycobacterium tuberculosis Erdman (autoluminescent)	rule not met
NNC(=O)c1ccncc1 [isoniazid] + CO[C@H]1/C=C/O[C@@]2(C)Oc3c(C)c(O)c4c(O)c(c(/C=N/N5CCN(C6CCCC6)CC5)c(O)c4c3C2=O)NC(=O)/C(C)=C\C=C\[C@H](C)[C@H](O)[C@@H](C)[C@@H](O)[C@@H](C)[C@H](OC(C)=O)[C@@H]1C [rifapentine] + CO[C@H]1/C=C/O[C@@]2(C)Oc3c(C)c(O)c4c(O)c(c(/C=N/N5CCN(C)CC5)c(O)c4c3C2=O)NC(=O)/C(C)=C\C=C\[C@H](C)[C@H](O)[C@@H](C)[C@@H](O)[C@@H](C)[C@H](OC(C)=O)[C@@H]1C [rifampicin]	Mycobacterium tuberculosis Erdman (autoluminescent)	rule met
O=[N+]([O-])c1cn2c(n1)OC[C@@H](OCc1ccc(OC(F)(F)F)cc1)C2 [pretomanid] + NC(=O)c1cnccn1 [pyrazinamide] + CO[C@H]1/C=C/O[C@@]2(C)Oc3c(C)c(O)c4c(O)c(c(/C=N/N5CCN(C6CCCC6)CC5)c(O)c4c3C2=O)NC(=O)/C(C)=C\C=C\[C@H](C)[C@H](O)[C@@H](C)[C@@H](O)[C@@H](C)[C@H](OC(C)=O)[C@@H]1C	Mycobacterium tuberculosis Erdman (autoluminescent)	rule not met
CC[C@@H](CO)NCCN[C@@H](CC)CO [ethambutol] + CC(=O)NC[C@H]1CN(c2ccc(N3CCOCC3)c(F)c2)C(=O)O1 [linezolid] + O=[N+]([O-])c1cn2c(n1)OC[C@@H](OCc1ccc(OC(F)(F)F)cc1)C2 [pretomanid]	Mycobacterium tuberculosis Erdman (autoluminescent)	rule met

Shifting focus to the compound that follows.
GRinf >= -0.2 for COc1nc2ccc(Br)cc2cc1[C@@H](c1ccccc1)[C@@](O)(CCN(C)C)c1cccc2ccccc12 [bedaquiline] + CC[C@@H](CO)NCCN[C@@H](CC)CO [ethambutol] + COc1c(N2C[C@@H]3CCCN[C@@H]3C2)c(F)cc2c(=O)c(C(=O)O)cn(C3CC3)c12 [moxifloxacin] ?
rule not met

====

- Test system: Mycobacterium tuberculosis Erdman (autoluminescent)
- PROCEDURE_SUMMARY: Einf, fitted maximum growth inhibition of three-drug combination (fraction); higher = stronger maximal inhibition
- CONDITION_CONTEXT: in vitro model: cholesterol-high 0.2 mM; time point: terminal (~4-5 doublings, model-specific)
READOUT_NAME: Einf
Please give the numeric answer without any surrounding text.

The recorded Einf for CC(C)/N=c1\cc2n(-c3ccc(Cl)cc3)c3ccccc3nc-2cc1Nc1ccc(Cl)cc1 [clofazimine] + CC[C@@H](CO)NCCN[C@@H](CC)CO [ethambutol] + NC(=O)c1cnccn1 [pyrazinamide] is 0.998

The reported Einf of the compound COc1nc2ccc(Br)cc2cc1[C@@H](c1ccccc1)[C@@](O)(CCN(C)C)c1cccc2ccccc12 [bedaquiline] + CC(=O)NC[C@H]1CN(c2ccc(N3CCOCC3)c(F)c2)C(=O)O1 [linezolid] + CO[C@H]1/C=C/O[C@@]2(C)Oc3c(C)c(O)c4c(O)c(c(/C=N/N5CCN(C)CC5)c(O)c4c3C2=O)NC(=O)/C(C)=C\C=C\[C@H](C)[C@H](O)[C@@H](C)[C@@H](O)[C@@H](C)[C@H](OC(C)=O)[C@@H]1C [rifampicin] was 1
